So I've got a bunch of compounds here, and I need their GI50 values.
Tested on: SK-MEL-28
Run description: NCI tumour cell line growth inhibition, 48 h
Active and inactive are the calls of the source. Rule as the data show it: active = GI50 up to about 1.1 µM and inactive = higher.

# input Look up and report GI50, with SK-MEL-28 as system, for Cc1nc2ccccc2n1Cc1nnc(N)o1
# output > 100 µM (inactive)

# input # return GI50 of C=C1C(=O)O[C@H]2C[C@@]3(C)[C@H](O)CCC(=C)[C@@H]3[C@@H](OC(C)=O)[C@H]12 (system: SK-MEL-28)
# output 20 µM (inactive)

# input Give GI50; test system SK-MEL-28; compound COc1ccc(-c2c(N)n(-c3nc4ccccc4s3)c(=O)c3cc([N+](=O)[O-])ccc23)cc1
# output > 100 µM (inactive)

# input Report GI50 under test system SK-MEL-28 for O=C(O)CCC(O)=C1S(=O)(=O)OCCOS1(=O)=O .
# output > 100 µM (inactive)

Moving on to the next compound.
# input Give GI50 for this entry on SK-MEL-28: Cc1occc1/C(S)=N\c1ccc(Cl)c(C(=O)OCC2CC2)c1
# output 72.6 µM (inactive)
